- TARGET SYSTEM: BN/GRP receptor on U-87MG tumour membranes
- EXPERIMENT: Displacement of 125I-[Tyr4]BN binding (radioreceptor assay) on U-87MG tumour membranes
- Design: species or system human
- TEST CONDITIONS: U-87MG tumour membranes; AN-215 10^-6–10^-12 M; mean±s.e.; read-out: IC50, inhibition of specific 125I-[Tyr4]BN binding
MEASUREMENT LABEL: IC50 (nM)
State just the number; it will be interpreted in nM.

Summary line: Gln-Trp-Ala-Val-Gly-His-Leu-ψ(CH2-NH)-Leu-NH2 [AN-215] , BN/GRP receptor on U-87MG tumour membranes, reported IC50 = 4
